MEASUREMENT_TYPE: melting point

- CN(C=O)c1cc(F)ccc1C(=O)COC(=O)c1ccccc1: 93 to 95 °C
- COc1ccn2cc(-c3ccc(C)c(C)c3)nc2c1: 175 °C
- CNC(=O)c1cccc(C)c1Nc1nc(Nc2ccc3c(c2)N(CCOC)C(=O)CCC3)ncc1Cl: 185 to 187 °C

Asked: Which melting point is reported for this compound? O=c1ccc(OS(=O)(=O)C(F)(F)F)n[nH]1
Given back: 130 to 132 °C

Asked: Look at this compound and give its reported melting point. CCC1(CC(=NNc2ccc([N+](=O)[O-])cc2[N+](=O)[O-])C(=O)OC)CCCN2CCc3c([nH]c4ccccc34)C21 (stereo not given)
Given back: 205 to 206 °C

Asked: Can you share its melting point? I mean this compound: CCCCCCCCCCCCCCCCCCCc1cccc(N)c1
Given back: 50 to 51 °C

* * *

MEASUREMENT_TYPE: melting point

* Cc1cc(Cl)nc(Br)c1 | 76 °C
* Cn1nc(-c2ccc(N)c([N+](=O)[O-])c2)c2ccccc21 | 231 °C
* COc1ccc(COc2cccc(C(=O)Nc3ccc(C#N)cn3)c2)cc1 | 132 to 134 °C
* CCOC(=O)CCC(O)c1cnc2c(OC)cccc2c1Nc1ccccc1C (stereo unspecified) | 133 to 135 °C
* CN1Cc2ccc3c(c2C1)NC(=O)C3=NO | 242 to 244 °C

Asked: Which melting point value is on record for CC(=O)Nc1cccc(C#Cc2ccc(OC3CN4CCC3CC4)nn2)c1 (stereo unspecified) ?
Given back: 132 to 134 °C

Asked: # input compound: CCON=C(CC)C1=C(O)CC(c2ccc(NC=O)cc2)CC1=O (stereo unspecified) ; wanted: its melting point
Given back: 111 to 114 °C

Asked: Reported melting point for COc1cc(OC)nc(C2OC(=O)c3c(-c4ccccc4)ccnc32)n1 (stereo unspecified) : what is it?
Given back: 151 to 154 °C

Asked: Fill in: melting point of CC(C)(C)OC(=O)NCC1CCc2cc(C=O)ccc2C1 (stereo unspecified) is ___
Given back: 115 °C

Asked: Entry CCOC(=O)C1=C(C)NC(COCCN=[N+]=[N-])=C(C(=O)OC)C1c1cccc(Cl)c1Cl (stereo unspecified) : reported melting point = ?
Given back: 126 °C

Asked: Need melting point, item CCOC(=O)c1cn(C2CC2)c2c(F)c(C#Cc3cc(Cc4cnc(N)nc4N)cc(OC)c3OC)c(F)cc2c1=O
Given back: > 230 °C

Asked: Give the measured melting point of C1CCN(c2nc(N3CCCC3)c3nc(N4CCCCC4)nc(N4CCCC4)c3n2)CC1 .
Given back: 254 to 256 °C

Asked: What does the data say about its melting point? Entry: COC(=O)/C(C)=C1\CN2C(=O)CC2O1 (stereo unspecified)
Given back: 90 to 91 °C

Asked: Recorded melting point of CCCSc1ncc(CCCC(=O)O)n1Cc1ccccc1Cl , please.
Given back: 98 to 99 °C

* * *

MEASUREMENT_TYPE: melting point

• Cn1ncc(/C=C/C(=O)Nc2ccc(Cc3nnn[nH]3)cc2)c1-c1ccc(F)cc1 = 252 to 253 °C
• CS(=O)(=O)c1ccc(-c2cnn(CC(F)(F)F)c(=O)c2Oc2ccc(C#N)cc2)cc1 = 179 to 181 °C
• CC1=CCCC2C1(C)CCC(C)C2(C)Cc1cc(O)ccc1O (stereo not given) = 146 to 148 °C
• NC(=O)NCc1ccc(Cl)cc1 = 186 to 189 °C
• Cc1ccc(Cc2cnc(NCCNc3ncc(Cl)cc3C)[nH]c2=O)cn1 = 112 to 115 °C

Asked: Which melting point value is on record for Cc1nn(-c2cc3nc(S)sc3cc2Cl)c(=O)n1C(F)F ?
Given back: 201 to 203 °C

Asked: Form field: reported melting point of O=C(Nc1ccccc1)c1ccc(O)c(Nc2ccccc2)c1
Given back: 158 to 159 °C

Asked: Give the measured melting point of CN1CCN(Cc2cc3c(cc2F)-c2[nH]nc(-c4ccsc4)c2C3)CC1 .
Given back: 115 to 118 °C

Asked: Which melting point is listed for COC1=C(OC)C(=O)C(CCCCC[C@H]2CC[C@H](OC(C)=O)CC2)=C(C)C1=O ?
Given back: 33 to 34 °C

Asked: Could you tell me which melting point is on file for CC(C)(C)OC(=O)NCc1ccc(CNC(=O)[C@@H](CCCNC(N)=N[N+](=O)[O-])NC(=O)C(c2ccccc2)c2ccccc2)cc1 ?
Given back: 198 °C

Asked: State the recorded melting point for this entry: c1ccc2c(c1)CC(CN1CCN(c3ccc4ccoc4c3)CC1)C2
Given back: 168 to 170 °C

Asked: What value of measured melting point is listed for COc1cc2cn(C3CCCCC3)nc2cc1OC ?
Given back: 100 to 103 °C

Asked: # lookup: melting point of Cc1ncccc1Cn1nnnc1-c1cccc(Cl)c1Cl
Given back: 121 to 122 °C

Asked: Could you share which melting point value was measured for COC(=O)c1cc(-n2cnnc2)c(C(F)(F)F)cc1N ?
Given back: 184 to 186 °C

Asked: Bench note: what melting point did CC(C)OC(=O)COc1ccc(CCNS(=O)(=O)c2ccccc2)cc1 show?
Given back: 56 to 57 °C

Asked: Need melting point of CCCCCCCCCOc1ccc(-c2ccc(Br)cc2)c(F)c1F , thanks.
Given back: 46 to 47.5 °C

Asked: For O=C(Nc1ccccc1)NN1CCN(CCc2c[nH]c3ccccc23)CC1 , what is its reported melting point?
Given back: 168 to 171 °C

Asked: Quick one: melting point for COC(=O)c1ccc(CCC(O)CCc2ccc(C(=O)OC)cc2)cc1 ?
Given back: 129 to 130 °C

* * *

melting point overview

The cases that follow already have their melting point on record.
• CCOC(=O)Cn1c(-c2ccc(C(F)(F)F)cc2)nc2cccnc21 = 147 to 148 °C
• CC(=CC(=O)c1ccccc1)NC(Cc1ccc(-c2cccc(CNCC(=O)c3ccccc3)c2)cc1)C(=O)O (centres undefined) = 136 °C
• N#Cc1ccc(-c2cn(-c3ccc(C#N)cc3)c(SCc3ccccc3)n2)cc1 = 168 to 172 °C
• CN1C(=O)CN=C(c2ccccc2F)c2cc(NC(=O)NC(C)(C)C)ccc21 = 210 °C
• C=CC(O)c1ccc2cc(OCCCCCC)ccc2c1 (centres undefined) = 47 to 48 °C

Asked: Item under review: Cc1cc(-c2ccc(C(F)(F)F)cc2)nc(-n2cnc(-c3cccc(S(N)(=O)=O)c3)c2)n1 . Reported melting point?
Given back: 186 °C

Asked: Return reported melting point; argument: COc1cc(CNC(C)=O)c(Cl)cc1O
Given back: > 300 °C

Asked: For the compound shown here, CSc1ccc(-n2cnc3ccc(-c4nnc(CCc5cccc(C#N)c5)o4)cc32)cc1 , give the reported melting point.
Given back: 185 to 186 °C

Asked: Please give the measured melting point for this compound: O=C(NCCc1ccc(O)c(O)c1)c1cccnc1
Given back: 156 to 162 °C

Asked: Find the recorded melting point belonging to COc1cc(CNc2nc(C)nc(C)c2Cl)ccc1Oc1ccc2ncc([N+](=O)[O-])n2n1 and report it.
Given back: 229 to 232 °C

Asked: Find the recorded melting point belonging to C=CCN(C(=O)c1cnc(N2CC(C)(C)NC2=O)nc1N)c1cccc(C(F)(F)F)c1 and report it.
Given back: 187 to 188 °C

Asked: So what's the measured melting point for this one? CCCCc1nn(-c2cc([N+](=O)[O-])ccc2Cl)c(C(=O)OCC)c1Cc1ccc(-c2ccccc2S(=O)(=O)NC(=O)c2ccccc2Cl)cc1
Given back: > 60 °C

Asked: Entry under review: CCCCOc1cc(/C=C(\OCC)C(=O)O)ccc1OCCc1ccc(OS(C)(=O)=O)cc1OC . Reported melting point?
Given back: 112 °C

Asked: Look up melting point for this compound: O=C1NC(=S)SC1=Cc1ccccc1C(=O)O
Given back: 276 to 278 °C

Asked: For the compound CC(C)(C)C1=CC(=CC#Cc2ccc(C(=O)O)cc2)C=C(C(C)(C)C)C1=O , what melting point is on record?
Given back: 216 to 218 °C

Asked: Name the recorded melting point for CN1CCN(c2ncc(-c3ccccc3)c(C(=O)N(C)Cc3cc(C(F)(F)F)cc(C(F)(F)F)c3)n2)CC1 .
Given back: 162 to 163 °C

* * *

MEASUREMENT_TYPE: melting point (°C)

A: O=C(Nc1ccc(Cl)cc1)C(O)c1ccccc1Cl (stereo not given)
B: CN(C)c1cccc2c1c(=O)n(C)c1c(-c3nc(C4CC4)no3)ncn21
Asked: Parameter check: reported melting point is higher for which label, A or B ? # reply format: chosen label
Given back: B

* * *

MEASUREMENT_TYPE: melting point

Illustrative cases are given below, each with its answer.
• CCc1nc(/C=C/c2cn(-c3ccccc3)nc2OCc2ccc(OCc3nc(/C=C/C(=O)O)oc3C)c(OC)c2)cs1 = 125 to 126 °C
• COC(=O)CC=CC=CC=CC=CC=Cc1ccsc1 = 206 to 208 °C
• CC(NC(=O)N(C)O)c1ccc(OCc2ccccc2)cc1 (stereo not given) = 105 to 106 °C

Asked: Recorded melting point of COc1nnc(C)c(-c2ccc(Cl)nc2)c1-c1c(F)cc(F)cc1F , please.
Given back: 123 to 124 °C

Asked: Look up melting point: CCCCCCOc1c(OC)cc(N)c2ncccc12
Given back: 168 to 171 °C

Asked: Could you share which melting point value was measured for COC(=O)Oc1ccc(CNC=C2C(=O)NC(=O)c3ccc(Br)cc32)cc1OC(=O)OC ?
Given back: 239 to 240 °C

Asked: Fill in the blank: the reported melting point of CN(CC#Cc1cc(CN2CCOCC2)cc2c(=O)c(C(=O)NCc3ccc(Cl)cc3)cn(C)c12)CCO is ____.
Given back: 148 to 149 °C

Asked: Quick one: melting point of CCC(CO)Nc1nc(C)nc2c(C)nn(C)c12 (stereo not given) ?
Given back: 165 to 168 °C

Asked: Entry Cc1nn(-c2ccccc2)c(-c2ccccc2)c1CC(=O)O has what melting point?
Given back: 159 to 161 °C

Asked: Give its melting point value. Item: O=[N+]([O-])c1ccc(NS(=O)(=O)c2ccc(Cl)c(Cl)c2)c(Cl)c1
Given back: 199 to 201 °C

Where do these numbers come from? They come from a melting point compilation (Tetko et al.; mined from patent text by program, amines drawn as free bases though some values may be those of a salt).
